Target: Recombinant human renin (Homo sapiens, UniProt P00797)
Sequence (P00797 67-406): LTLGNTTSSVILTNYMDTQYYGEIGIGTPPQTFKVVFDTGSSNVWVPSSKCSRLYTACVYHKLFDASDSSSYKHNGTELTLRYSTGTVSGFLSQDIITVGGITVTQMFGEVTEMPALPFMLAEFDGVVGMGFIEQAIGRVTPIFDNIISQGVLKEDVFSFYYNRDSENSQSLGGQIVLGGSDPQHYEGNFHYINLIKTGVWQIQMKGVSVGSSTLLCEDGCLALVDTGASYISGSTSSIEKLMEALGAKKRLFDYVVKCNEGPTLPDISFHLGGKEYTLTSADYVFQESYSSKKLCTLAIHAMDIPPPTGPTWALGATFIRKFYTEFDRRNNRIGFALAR
Assay: In vitro renin inhibitory activity assay
Conditions: recombinant human renin 4.2 ng/mL, substrate 4 μM, 37° C., one hour, pH 7.4
Experimental Readout: pIC50
pIC50 here is simply -log10 of the concentration when that concentration is written in mol/L.

Given the entry CCC(=O)NCCN1C(=O)C(C)(COC)Oc2cc(C(F)(F)F)c(C(=O)N(C(C)C)C3CCCN(C(=O)OC(C)OC(=O)C(C)C)C3)cc21 (stereo not drawn) , report its measured pIC50.
7.66

Requested field: pIC50. Item: CCC(=O)NCCN1C(=O)C2(CCC2)Oc2cc(C)c(C(=O)N(C(C)C)C3CCCN(C(=O)OC(C)OC(=O)COC)C3)cc21 (stereo not drawn)
7.85

Quick one: pIC50 of CCC(=O)NCCN1C(=O)C(C)(C)Oc2cc(C)c(C(=O)N(C(C)C)C3CCCN(C(=O)OC(C)OC(=O)OC(C)C)C3)cc21 (stereo not drawn) ?
6.39

pIC50 for CCC(=O)NCCN1C(=O)C(C)(C)Oc2cc(C)c(C(=O)N(C(C)C)C3CCCN(C(=O)OC(OC(=O)CC)C(C)C)C3)cc21 (stereo not drawn) ?
7.04

Please report the recorded pIC50 for "CCC(=O)NCCN1C(=O)C2(CC2)Oc2cc(C)c(C(=O)N(C(C)C)[C@@H]3CCCN(C(=O)OCc4oc(=O)oc4C)C3)cc21" .
8.59

State the recorded pIC50 for this entry: "CCC(=O)NCCN1C(=O)C2(CCC2)Oc2cc(C)c(C(=O)N(C(C)C)[C@@H]3CCCN(C(=O)O[C@H](C)OC(=O)C(C)C)C3)cc21"
6.28
